Cited source: patent US20210221894A1

Listed here are binders together with their documented koff.
- TESTED TARGET: T1, human DLL3-His (human, UniProt Q9NYJ7 27-492)
- T1 construct: also called hDLL3
- T1 sequence: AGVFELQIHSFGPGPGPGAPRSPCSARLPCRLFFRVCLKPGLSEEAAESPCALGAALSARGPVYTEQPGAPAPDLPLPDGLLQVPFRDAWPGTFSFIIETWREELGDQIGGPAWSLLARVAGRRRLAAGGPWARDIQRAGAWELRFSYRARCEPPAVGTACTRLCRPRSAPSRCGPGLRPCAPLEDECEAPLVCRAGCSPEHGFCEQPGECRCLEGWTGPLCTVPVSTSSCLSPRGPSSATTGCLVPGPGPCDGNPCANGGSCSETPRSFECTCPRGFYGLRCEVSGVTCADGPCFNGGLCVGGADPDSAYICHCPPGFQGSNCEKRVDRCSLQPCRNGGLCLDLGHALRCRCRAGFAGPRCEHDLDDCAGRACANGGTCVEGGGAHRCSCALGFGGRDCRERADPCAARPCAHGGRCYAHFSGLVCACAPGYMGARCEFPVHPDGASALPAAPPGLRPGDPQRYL
- TEST DETAILS: SPR (Biacore 8K), 37 C, antibody captured on anti-human Fc, DLL3-His 0.411-300 nM injected, 1:1 fit
- Procedure: The kinetics of binding of different humanized variants and parental murine 5E7 antibody to human DLL3-His was studied by Surface Plasmon Resonance using a Biacore 8K instrument. […] The kinetic parameters of human DLL3-His binding to murine and humanized variants of 5E7 antibody variants were calculated and shown in Table 39.
Respond numerically; units are s⁻¹ and should not be typed.

| BINDER | UNIT SPEC | TEST RESULT |
| --- | --- | --- |
| humanized anti-DLL3 antibody h5E7 (antibody, V domains shown, Expressed as IgG1 mAb: human IgG1 CH1-CH2-CH3 and human constant kappa) VH: QVQLVQSGAEVKKPGASVKVSCKASGFNIKDDYIHWVRQAPGQGLEWMGWIDSENGDTEYASKFQGRVTITADTSANTAYMELSSLRSEDTAVYYCATSSYYSYDLFVYWGQGTLVTVSS VL: DVQMTQSPSSLSASVGDRVTITCKSSQSLLHSNGKTYLNWLQQKPGQAPKLLLYLVSKLESGVPSRFSGSGSGTDYTLTISSLQPEDFATYYCLQTTHLYTFGQGTKLEIK | s⁻¹ | 0.00697 |

# input for lookup
Incoming: Please indicate koff recorded for humanized anti-DLL3 antibody h5E7-YD-B5 (antibody, V domains shown, Expressed as IgG1 mAb: human IgG1 CH1-CH2-CH3 and human constant kappa; also called B5 variant) VH: QVQLVQSGAEVKKPGASVKVSCKASGFNIKDDYIHWVRQAPGQGLEWMGWIDSENGDTEYASKFQGRVTITADTSANTAYMELSSLRSEDTAVYYCATSTYWSYDLFVYWGQGTLVTVSS VL: DVQMTQSPSSLSASVGDRVTITCKSSQSLLHSNGKTYLNWLQQKPGQAPKLLLYLVSKLESGVPSRFSGSGSGTDYTLTISSLQPEDFATYYCLQTTHLYTFGQGTKLEIK
Outgoing: 0.00013
